From: paper PMC11123692

- assay protocol: Equilibrium surface tension, Wilhelmy plate method (CMC, γcmc, Amin and derived quantities)
- Format: physicochemical
- measurement setup: T = 25 °C; from Gibbs adsorption equation
Kindly state Amin for each of the entries shown.
Dear colleague, please return just the value in Å^2/molecule, with no unit written.

Which Amin is reported for this compound? CCCCCCCC(=O)OC[C@H]1O[C@H](OC)[C@H](O)[C@@H](O)[C@@H]1O [MeαGlcO(C=O)C7, Methyl 6-O-octanoyl-α-D-glucopyranoside]
39

Which Amin is reported for this compound? CCCCCC(=O)OC[C@H]1O[C@H](OC)[C@H](O)[C@@H](O)[C@@H]1O [MeαGlcO(C=O)C5, Methyl 6-O-hexanoyl-α-D-glucopyranoside]
40.1

Which Amin is reported for this compound? CCCCCCOC(=O)[C@H]1O[C@H](OC)[C@H](O)[C@@H](O)[C@@H]1O [MeαGlc(C=O)OC6]
39.2
